- TEST_METHOD_NOTES: clinical
- Parameters: species or system human
- CONDITIONS: human, in vivo
Where a SMILES comes first, the peptide text is derived from it. [ ]: non-standard residue; d: D form. NMeThr(4R-Me,4-(CH2)6NHAc) = CN[C@H](C(=O)O)[C@H](O)[C@H](C)CCCCCCNC(C)=O; NMeL = CN[C@@H](CC(C)C)C(=O)O; NMeV = CN[C@H](C(=O)O)C(C)C; dNMeA = CN[C@H](C)C(=O)O; Abu = CC[C@H](N)C(=O)O

[
  {
    "COMPOUND": "CC[C@@H]1NC(=O)[C@H]([C@H](O)[C@H](C)CCCCCCNC(C)=O)N(C)C(=O)[C@H](C(C)C)N(C)C(=O)[C@H](CC(C)C)N(C)C(=O)[C@H](CC(C)C)N(C)C(=O)[C@@H](C)NC(=O)[C@H](C)NC(=O)[C@H](CC(C)C)N(C)C(=O)[C@H](C(C)C)NC(=O)[C@H](CC(C)C)N(C)C(=O)[C@@H](C)N(C)C1=O [CRV431] (cyclo(A[dA][NMeL][NMeL][NMeV][NMeThr(4R-Me,4-(CH2)6NHAc)][Abu][dNMeA][NMeL]V[NMeL]))",
    "half-life": "~100 h"
  }
]
